The measurements presented in this section are drawn from paper PMC8360061.

- Assayed target: EcIspE (Escherichia coli, UniProt P62615)
- Construct: made in house
- Sequence (P62615 whole entry): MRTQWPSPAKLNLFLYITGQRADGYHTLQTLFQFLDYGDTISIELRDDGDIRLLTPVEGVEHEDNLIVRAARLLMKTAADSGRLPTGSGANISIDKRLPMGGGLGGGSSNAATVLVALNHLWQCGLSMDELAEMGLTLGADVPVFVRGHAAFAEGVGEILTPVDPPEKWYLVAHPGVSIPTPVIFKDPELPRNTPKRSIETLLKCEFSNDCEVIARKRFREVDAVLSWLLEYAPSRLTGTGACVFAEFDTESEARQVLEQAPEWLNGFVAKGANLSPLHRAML
- Run description: EcIspE enzymatic assay (coupled to PK/LDH)
- Type: biochemical
- Assay conditions: fractions of second purification; dissolved in ACN
Reported endpoint: IC50

>>> observed_measurement("CCn1c(C)cc(-c2csc(Nc3ccccc3C(F)(F)F)n2)c1C")
"> 1370 µM"
>>> observed_measurement("C=CCn1c(C)cc(-c2csc(Nc3ccccc3C(C)C)n2)c1C")
"> 1420 µM"
>>> observed_measurement("CCn1c(C)cc(-c2csc(Nc3ccccc3OC)n2)c1C")
"> 1530 µM"
>>> observed_measurement("Cc1cc(-c2csc(Nc3ccccc3C(F)(F)F)n2)c(C)n1CC1CCCO1 (stereo not shown)")
"> 1190 µM"

* * *

- Assayed target: PK/LDH (pyruvate kinase and lactate dehydrogenase)
- Run description: PK/LDH auxiliary enzyme assay
- Assay type: biochemical
- Assay conditions: SFC-separated compound, dissolved in methanol shortly before the assay
Reported endpoint: IC50 (µM)

>>> observed_measurement("CCn1c(C)cc(-c2csc(N(c3ccccc3C(F)(F)F)N(C3=NC(=C4C=C(C)[N+](CC)=C4C)CS3)c3ccccc3C(F)(F)F)n2)c1C [DP2]")
37

* * *

- Assayed target: PfIspE (Plasmodium falciparum)
- Run description: PfIspE enzymatic assay (coupled to PK/LDH, NADH oxidation at 340 nm)
- Assay type: biochemical
- Assay conditions: analytical sample, DMSO at RT, 0 days of incubation; dissolved in methanol shortly before the assay
Reported endpoint: IC50

>>> observed_measurement("CCn1c(C)cc(-c2csc(Nc3ccccc3C(F)(F)F)n2)c1C")
"> 500 µM"

* * *

- Assayed target: PfIspE (Plasmodium falciparum)
- Run description: PfIspE enzymatic assay (coupled to PK/LDH, NADH oxidation at 340 nm)
- Assay type: biochemical
- Assay conditions: fractions of second purification (DMSO, RT, five days); dissolved in MeOH
Reported endpoint: IC50

>>> observed_measurement("C=CCn1c(C)cc(-c2csc(Nc3ccccc3C(C)C)n2)c1C")
"> 1420 µM"
>>> observed_measurement("Cc1cc(-c2csc(Nc3ccccc3C(F)(F)F)n2)c(C)n1CC1CCCO1 (stereo not shown)")
"112 µM"
>>> observed_measurement("CCn1c(C)cc(-c2csc(Nc3ccccc3C(F)(F)F)n2)c1C")
"> 1370 µM"
>>> observed_measurement("CCn1c(C)cc(-c2csc(Nc3ccccc3OC)n2)c1C")
"> 1530 µM"

* * *

- Assayed target: UniProt Q8I470
- Run description: PfIspE enzymatic assay (coupled to PK/LDH, NADH oxidation at 340 nm)
- Format: biochemical
- Assay conditions: 10 mM stock in DMSO at RT, 14 days of incubation
pIC50: −log10 of the molar value.
Reported endpoint: pIC50

>>> observed_measurement("CCn1c(C)cc(-c2csc(Nc3ccccc3C(F)(F)F)n2)c1C")
5.00

* * *

- Assayed target: UniProtKB Q8I470
- Run description: PfIspE enzymatic assay (coupled to PK/LDH, NADH oxidation at 340 nm)
- Assay type: biochemical
- Assay conditions: 10 mM stock in ACN at RT, 16 days of incubation
pIC50: −log10 of the molar value.
Reported endpoint: pIC50

>>> observed_measurement("CCn1c(C)cc(-c2csc(Nc3ccccc3C(F)(F)F)n2)c1C [Compound 1]")
"< 3.30"

* * *

- Assayed target: PfIspE (Plasmodium falciparum)
- Run description: PfIspE enzymatic assay (coupled to PK/LDH, NADH oxidation at 340 nm)
- Type: biochemical
- Assay conditions: 10 mM stock in ACN at RT, 7 days of incubation
Reported endpoint: IC50

>>> observed_measurement("CCn1c(C)cc(-c2csc(Nc3ccccc3C(F)(F)F)n2)c1C")
"> 500 µM"

* * *

- Assayed target: PK/LDH (pyruvate kinase and lactate dehydrogenase)
- Run description: PK/LDH auxiliary enzyme assay
- Format: biochemical
- Assay conditions: 10 mM stock in DMSO at RT, 16 days of incubation
Reported endpoint: IC50 (µM)

>>> observed_measurement("CCn1c(C)cc(-c2csc(Nc3ccccc3C(F)(F)F)n2)c1C")
86

* * *

- Assayed target: PfIspE (Plasmodium falciparum)
- Run description: PfIspE enzymatic assay (coupled to PK/LDH, NADH oxidation at 340 nm)
- Type: biochemical
- Assay conditions: old decomposed sample, control run at the same time as the temperature study
pIC50: −log10 of the molar value.
Reported endpoint: pIC50

>>> observed_measurement("CCn1c(C)cc(-c2csc(Nc3ccccc3C(F)(F)F)n2)c1C [Compound 1]")
5.00

* * *

- Assayed target: EcIspE (Escherichia coli)
- Construct: made in house
- Run description: EcIspE enzymatic assay (coupled to PK/LDH)
- Type: biochemical
- Assay conditions: analytical sample, DMSO at RT, 4 days of incubation; dissolved in methanol shortly before the assay
Reported endpoint: IC50 (µM)

>>> observed_measurement("CCn1c(C)cc(-c2csc(Nc3ccccc3C(F)(F)F)n2)c1C [Compound 1]")
75

* * *

- Assayed target: UniProtKB Q8I470
- Run description: PfIspE enzymatic assay (coupled to PK/LDH, NADH oxidation at 340 nm)
- Format: biochemical
- Assay conditions: 10 mM stock in MeOH at RT, 14 days of incubation
Reported endpoint: IC50

>>> observed_measurement("CCn1c(C)cc(-c2csc(Nc3ccccc3C(F)(F)F)n2)c1C")
"> 500 µM"

* * *

- Assayed target: UniProtKB Q8I470
- Run description: PfIspE enzymatic assay (coupled to PK/LDH, NADH oxidation at 340 nm)
- Assay type: biochemical
- Assay conditions: 10 mM stock in DMSO at RT, 0 days of incubation
pIC50: −log10 of the molar value.
Reported endpoint: pIC50

>>> observed_measurement("CCn1c(C)cc(-c2csc(Nc3ccccc3C(F)(F)F)n2)c1C [Compound 1]")
"< 3.30"

* * *

- Assayed target: PfIspE (Plasmodium falciparum)
- Run description: PfIspE enzymatic assay (coupled to PK/LDH, NADH oxidation at 340 nm)
- Assay type: biochemical
- Assay conditions: analytical sample, DMSO at RT, 1 day of incubation; dissolved in methanol shortly before the assay
Reported endpoint: IC50

>>> observed_measurement("CCn1c(C)cc(-c2csc(Nc3ccccc3C(F)(F)F)n2)c1C")
"> 500 µM"

* * *

- Assayed target: PK/LDH (pyruvate kinase and lactate dehydrogenase)
- Run description: PK/LDH auxiliary enzyme assay
- Type: biochemical
- Assay conditions: 10 mM stock in DMSO at RT, 14 days of incubation
Reported endpoint: IC50 (µM)

>>> observed_measurement("CCn1c(C)cc(-c2csc(Nc3ccccc3C(F)(F)F)n2)c1C")
50

* * *

- Assayed target: PfIspE (Plasmodium falciparum)
- Run description: PfIspE enzymatic assay (coupled to PK/LDH, NADH oxidation at 340 nm)
- Assay type: biochemical
- Assay conditions: analytical sample, DMSO at RT, 3 days of incubation; dissolved in methanol shortly before the assay
pIC50: −log10 of the molar value.
Reported endpoint: pIC50

>>> observed_measurement("CCn1c(C)cc(-c2csc(Nc3ccccc3C(F)(F)F)n2)c1C")
3.31

* * *

- Assayed target: PfIspE (Plasmodium falciparum, UniProt Q8I470)
- Sequence (Q8I470 entry or part of it): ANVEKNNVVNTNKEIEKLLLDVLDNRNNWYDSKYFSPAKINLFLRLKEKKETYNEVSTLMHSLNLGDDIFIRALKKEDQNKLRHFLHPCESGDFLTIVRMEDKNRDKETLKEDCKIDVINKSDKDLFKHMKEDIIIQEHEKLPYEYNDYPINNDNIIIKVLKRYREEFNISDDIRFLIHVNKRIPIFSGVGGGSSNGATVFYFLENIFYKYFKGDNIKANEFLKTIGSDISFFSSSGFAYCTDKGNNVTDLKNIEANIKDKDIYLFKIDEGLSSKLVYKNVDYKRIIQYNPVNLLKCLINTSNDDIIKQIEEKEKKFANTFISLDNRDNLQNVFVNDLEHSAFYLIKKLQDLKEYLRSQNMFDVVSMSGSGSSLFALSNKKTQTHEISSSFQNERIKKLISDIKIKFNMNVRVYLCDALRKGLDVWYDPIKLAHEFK
- Run description: PfIspE enzymatic assay (coupled to PK/LDH, NADH oxidation at 340 nm)
- Type: biochemical
- Assay conditions: fractions of first prep. HPLC purification (DMSO, RT, 2.5 weeks); dissolved in DMSO as 1 mg/mL
- Procedure: Firstly, we performed a temperature‐dependent decomposition study of compound 1 at 10 mM concentration in DMSO at room temperature (RT), +4 °C and −20 °C (SI, Section 2.3). […] Besides visual inspection of the colour changes of the test sample (see Table 2), the decomposition was monitored by HRMS and NMR spectroscopy. […] For the final purified compounds, replicates were measured and standard deviation was calculated at least from two replicates. […]
Reported endpoint: IC50

>>> observed_measurement("Cc1cc(-c2csc(Nc3ccccc3C(F)(F)F)n2)c(C)n1CC1CCCO1 (stereo not shown)")
"> 1.19 mM"

* * *

- Assayed target: PfIspE (Plasmodium falciparum, UniProt Q8I470)
- Run description: PfIspE enzymatic assay (coupled to PK/LDH, NADH oxidation at 340 nm)
- Assay type: biochemical
- Assay conditions: 10 mM stock in MeOH at RT, 7 days of incubation
Reported endpoint: IC50

>>> observed_measurement("CCn1c(C)cc(-c2csc(Nc3ccccc3C(F)(F)F)n2)c1C")
"> 500 µM"

* * *

- Assayed target: PK/LDH (pyruvate kinase and lactate dehydrogenase)
- Run description: PK/LDH auxiliary enzyme assay
- Assay type: biochemical
- Assay conditions: 10 mM stock in DMSO at RT, 12 days of incubation
pIC50: −log10 of the molar value.
Reported endpoint: pIC50

>>> observed_measurement("CCn1c(C)cc(-c2csc(Nc3ccccc3C(F)(F)F)n2)c1C [Compound 1]")
5.70
